Measured values drawn from PubChem BioAssay for this set.

# measurementProtocol: drug combination toxicity in non-malignant astrocytes – cell-based, BGB or cisplatin IC20 combos, cytotoxicity control for chromothriptic childhood tumor combination screen (AID 1671460);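 note: cells exposed to compounds for 96 hours before viability readout; 0% = vehicle and 100% = killing control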
# testContext: Human astrocytes, viability inhibition, drug combinations; at 0.5 µM; hits give high values
Here, each record is paired with measured inhibition data.

compound	inhibition (%)
CCC(Sc1nnc2c3ccccc3n(CC)c2n1)C(=O)Nc1ccccc1OC (centres undefined)	10.6
COc1cccc2c1C(=O)c1c(O)c3c(c(O)c1C2=O)CC(O)(C(C)=O)CC3OC1CC(N)C(O)C(C)O1 (centres undefined)	93.3
C=C1C(=O)O[C@@H]2C=C(C)CCC=C(C)CC[C@@H]12	3.62
Nc1ccccc1NC(=O)c1cnccn1	3.77
Cc1cn(C2CC(O)C(COP(=O)(O)OP(=O)(O)OP(=O)(O)O)O2)c(=O)[nH]c1=O (centres undefined)	2.58
Cc1cc(C)c(Nc2ccnc(Nc3ccc(C#N)cc3)n2)c(C)c1	11.9
C[n+]1ccc(-c2c3nc(c(-c4cc[n+](C)cc4)c4ccc([nH]4)c(-c4cc[n+](C)cc4)c4nc(c(-c5cc[n+](C)cc5)c5ccc2[nH]5)C=C4)C=C3)cc1	-1.53
C=C(C)C1CCC2(C(=O)O)CCC3(C)C(CCC4C5(C)CCC(O)C(C)(C)C5CCC43C)C12 (centres undefined)	6.79
CCC(C)C(=O)OC1CC(C)C=C2C=CC(C)C(CCC3CC(O)CC(=O)O3)C21 (centres undefined)	-9.68

====

# measurementProtocol: galactose survival enhancers in mitochondrial complex I cybrids – cell-based, galactose medium, ATP luminescence, primary screen (AID 1645843);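 note: positive z means more ATP and so rescue of galactose-driven cybrid death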
# testContext: complex I mutant cybrid cells, 72 h, hits give high values
Activity calls are given as the source filed them.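 Rule for the calls: active = z-score of at least 1.8 in each of two replicates, scored against plate mean and spread of sample wells; inactive = the rest.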
readoutName: z-score

compound	experimentalValue
CCn1cc(-c2cc(C(=O)N3CCN(C)C(=O)C3C)c3ccc(C)cc3n2)cn1 (centres undefined)	-0.19 (inactive)
Clc1ccc(C(Cn2ccnc2)OCc2csc3c(Cl)cccc23)c(Cl)c1 (centres undefined)	0.155 (inactive)
c1ccc(C(CCn2ccnc2)NC2CCCCCC2)cc1 (centres undefined)	-0.47 (inactive)
O=c1ccc2c(OCCCCc3ccccc3)c3ccoc3cc2o1	-0.515 (inactive)
COc1cc(F)c(C(=O)N(C)CC2CCCCN2C)c(F)c1 (centres undefined)	-0.575 (inactive)
CCCC(NC(=O)c1ccc[n+]([O-])c1)c1ccccc1 (centres undefined)	-0.43 (inactive)
O=C(O)COc1cccc2ccccc12	0.555 (inactive)
Oc1ccc(/C=C/c2ccc(/C=C/c3ccc(O)cc3)c(Br)c2)cc1	0.44 (inactive)
O=C(C1COc2ccccc2C1)N1CC(=O)N(C2CCCCC2)CC(OCc2ccccn2)C1 (centres undefined)	2.08 (inactive)
COc1cccc(CN2CCN(c3ccc4cccc(OC)c4n3)CC2)c1	-0.86 (inactive)
N[C@H](CO)C(=O)O	0.31 (inactive)
O=S(=O)(O)c1cccc2cccc(Nc3ccccc3)c12	0.715 (inactive)
COC(=O)c1c(NC(=O)C2CC2)c2cc(NC3CCOCC3)cnc2n1Cc1ccccc1	-0.845 (inactive)
Cc1nn(C)cc1-c1ccnc(N2CCN(Cc3ccc(F)cc3)C(=O)C2)n1	0.865 (inactive)
CCCCNC(=O)[C@@H]1C[C@H](CN2CCOCC2)CN(Cc2ccc(OC)c(OC)c2)C1	1.15 (inactive)
Cc1cn(CC(=O)Nc2cnn(C)n2)nc1-c1cccs1	0.735 (inactive)
Cc1cc(N2CCCC(Cn3cc(CN)nn3)C2)nc(-c2ccccc2O)n1 (centres undefined)	-0.9 (inactive)
CCOC(=O)c1csc(CCNC2CCc3c(c(C(=O)N4CCc5ccccc5C4)nn3C)C2)n1 (centres undefined)	-1.24 (inactive)
Cc1cnc(CN(C)C(=O)c2n[nH]c3ccccc23)[nH]1	-0.445 (inactive)
C=C1/C(=C/C=C2/CCC[C@]3(C)[C@@H]([C@H](C)CCCC(C)C)CC[C@@H]23)C[C@@H](O)C[C@@H]1O	-2.23 (inactive)
NC[C@H]1O[C@@H](n2cnc3c(N)ncnc32)[C@H](O)[C@@H]1O	1.03 (inactive)
COc1ccc(C(=O)/C(Cc2cc(OC)c(OC)c(OC)c2)=C(\C(=O)O)c2ccc3c(c2)OCO3)cc1	-1.33 (inactive)
CN1CC(O)C(O)C(O)C1CO (centres undefined)	0.28 (inactive)
CC(C)C[C@H]1NC(=O)[C@H]2CN(C(=O)OCc3ccccc3)CCN2C1=O	-0.205 (inactive)
O=C(O)c1sccc1S(=O)(=O)Nc1ccc(Cl)cc1	0.48 (inactive)
Cc1cc(NC(=O)Cn2c(C)nc(Cl)c2Cl)n(C2CCCCC2)n1	-0.41 (inactive)
COc1ccccc1-c1noc(Cn2ncc3ccccc32)n1	1.12 (inactive)
OCC1OC(n2cnc3c(NC4CCCC4O)ncnc32)C(O)C1O (centres undefined)	0.73 (inactive)
COC(=O)C(N)Cc1ccc(Cl)cc1 (centres undefined)	0.46 (inactive)
O=C1CN(c2ncnc3nc[nH]c23)CCN1Cc1cccc(F)c1	-0.53 (inactive)
CC(C)N(C)C(=O)c1cc(-c2cnc(C(C)(C)C)nc2)nc2cc(F)ccc12	-0.525 (inactive)
COc1ccc2c(C(=O)N(C)CCc3ccccn3)cc(-c3cnn(C)c3)nc2c1	-0.54 (inactive)
CC(C)(C)NC(=O)C1CC2CCCCC2CN1CC(O)C(Cc1ccccc1)NC(=O)C(CC(N)=O)NC(=O)c1ccc2ccccc2n1 (centres undefined)	-1.52 (inactive)
Cc1csc(-c2cc(C(=O)NCCCN3CCOCC3)cc(S(=O)(=O)N3CCOCC3)c2)c1	2.09 (inactive)
CCCCC(CC)CN1CCC(n2cc(CNC)nn2)CC1 (centres undefined)	1 (inactive)
Cc1ccc(-n2cc(-c3nc4c(cnn4Cc4cccnc4)[nH]3)cn2)cc1	-0.445 (inactive)
COC(=O)c1c(NC(=O)C2CCC2)c2cc(NC3CCSCC3)cnc2n1CCc1ccccn1	1.1 (inactive)
C=C1C(=CC=C2CCC[C@@]3(C)C2CCC3C(C)CCCC(C)(C)O)CC(O)CC1O (some centres undefined)	-1.52 (inactive)
NC(=O)c1ccccc1	0.385 (inactive)
COC(=O)c1ccc(C(=O)N2CCNC(=O)C2Cc2ccccc2)cc1 (centres undefined)	-0.49 (inactive)
CNC(=O)c1ccccc1-c1cccc2ccccc12	-0.535 (inactive)
NC(N)=NC(N)=Nc1cc(C(F)(F)F)ccc1Cl	-1.95 (inactive)
Cc1ccc2c(C(=O)N3CCCCC3)cc(-c3cnn(C(C)C)c3)nc2c1	-0.385 (inactive)
O=C1N[C@@H](COCc2ccccc2)C(=O)N2C[C@@H](NCc3cnn(-c4cccc(F)c4)c3)C[C@@H]12	-0.845 (inactive)
